species: Homo sapiens; test: Selectivity for TAFIa versus CPB carboxypeptidase B isoforms
Observation type: Selectivity
// response body must contain only the number

Please give the measured Selectivity for this compound: CC(C)(C)CCn1cnc(C(C[C@H]2CC[C@H](N)C2)C(=O)O)c1 (stereo partly drawn)
1

Please give the measured Selectivity for this compound: CC(C)CCn1cnc(C(CCCCN)C(=O)O)c1 (stereo not drawn)
6.7

Please give the measured Selectivity for this compound: NCCCCC(C(=O)O)c1c[nH]cn1 (stereo not drawn)
6.3

Please give the measured Selectivity for this compound: CC(CN)CCC(C(=O)O)c1c[nH]cn1 (stereo not drawn)
5.6

Please give the measured Selectivity for this compound: Cc1cc(CC(C(=O)O)c2c[nH]cn2)cnc1N (stereo not drawn)
0.2

Please give the measured Selectivity for this compound: CC(C)(CN)CCC(C(=O)O)c1c[nH]cn1 (stereo not drawn)
1.6

Please give the measured Selectivity for this compound: Cc1cc(CC(C(=O)O)c2cn(CCC(C)(C)C)cn2)cnc1N (stereo not drawn)
0.08

Please give the measured Selectivity for this compound: Cc1cc(CC(C(=O)O)c2cn(CCC(C)C)cn2)cnc1N (stereo not drawn)
0.04

Reference for the values: ChEMBL document CHEMBL1147549
